Examples of binders with documented % Ra2 Binding Inhibition follow.
- Target entity: T1, human IL-13 R130Q variant (R110Q of the mature chain) (human, UniProt P35225 35-146, Biotinylated on amines (NHS-LC-biotin, 4:1) in ELISA, panning and competition assays. The letters are unchanged.)
- T1 construct: R130Q counts from Met 1 of the signal peptide, R110Q on the mature chain; Bought from Peprotech; also called IL-13 R110Q; b-R130Q
- T1 sequence (P35225 35-146 limits assumed, stated change not applied): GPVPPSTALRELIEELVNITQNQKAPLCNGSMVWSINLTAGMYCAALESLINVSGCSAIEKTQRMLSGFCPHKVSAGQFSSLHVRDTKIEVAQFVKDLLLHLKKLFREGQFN
- Protocol text: Ra2 binding inhibition ELISA, mAb in crude HEK293 supernatant, IL-13 binding to IL-13Ra2
Write the value in % as a bare number.

Observe how each entry below is paired with its result.
Binder	% Ra2 Binding Inhibition (%)
mAb with Lc 2B03 (Lc6 variant) and Hc2 (antibody, V domains shown, human IgG1) VH: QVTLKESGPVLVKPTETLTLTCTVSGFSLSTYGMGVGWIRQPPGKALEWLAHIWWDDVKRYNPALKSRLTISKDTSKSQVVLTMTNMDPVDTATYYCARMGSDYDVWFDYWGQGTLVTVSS VL: EIVLTQSPATLSLSPGERATLSCRASKSISKYLAWYQQKPGQAPRLLIYSGSTLQSGIPARFSGSGSGTDFTLTISSLEPEDFAVYYCQQHDYPYTFGQGTKLEIK	90.6
mAb with Lc 3E06 (Lc6 variant) and Hc2 (antibody, V domains shown, human IgG1; del = residue deleted) VH: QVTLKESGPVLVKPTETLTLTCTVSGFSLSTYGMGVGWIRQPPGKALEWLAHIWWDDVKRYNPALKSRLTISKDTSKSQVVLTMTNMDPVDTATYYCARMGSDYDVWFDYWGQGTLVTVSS VL: EIVLTQSPATLSLSPGERATLSCRASKSISKYLAWYQQKPGQAPRLLIYSGSTLQSGIPARFSGSGSGTDFTLTISSLEPEDFAVYYCQQQDSPYTFGQGTKLEIK	89

// switching to the query binder
What the record says about mAb with Lc 1G02 (Lc6 variant, Table 8) and Hc2 (antibody, V domains shown, human IgG1) VH: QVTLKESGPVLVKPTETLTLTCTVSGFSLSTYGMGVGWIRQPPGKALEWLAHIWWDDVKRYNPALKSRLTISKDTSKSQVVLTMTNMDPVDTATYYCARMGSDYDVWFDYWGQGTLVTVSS VL: EIVLTQSPATLSLSPGERATLSCRASKSISKYLAWYQQKPGQAPRLLIYSGSTLQSGIPARFSGSGSGTDFTLTISSLEPEDFAVYYCQQHSWAPYTFGQGTKLEIK : % Ra2 Binding Inhibition is 55.2
